- experimental-target: HuCD100 (cell surface) (human, UniProt Q92854)
- Sequence (Q92854 22-734): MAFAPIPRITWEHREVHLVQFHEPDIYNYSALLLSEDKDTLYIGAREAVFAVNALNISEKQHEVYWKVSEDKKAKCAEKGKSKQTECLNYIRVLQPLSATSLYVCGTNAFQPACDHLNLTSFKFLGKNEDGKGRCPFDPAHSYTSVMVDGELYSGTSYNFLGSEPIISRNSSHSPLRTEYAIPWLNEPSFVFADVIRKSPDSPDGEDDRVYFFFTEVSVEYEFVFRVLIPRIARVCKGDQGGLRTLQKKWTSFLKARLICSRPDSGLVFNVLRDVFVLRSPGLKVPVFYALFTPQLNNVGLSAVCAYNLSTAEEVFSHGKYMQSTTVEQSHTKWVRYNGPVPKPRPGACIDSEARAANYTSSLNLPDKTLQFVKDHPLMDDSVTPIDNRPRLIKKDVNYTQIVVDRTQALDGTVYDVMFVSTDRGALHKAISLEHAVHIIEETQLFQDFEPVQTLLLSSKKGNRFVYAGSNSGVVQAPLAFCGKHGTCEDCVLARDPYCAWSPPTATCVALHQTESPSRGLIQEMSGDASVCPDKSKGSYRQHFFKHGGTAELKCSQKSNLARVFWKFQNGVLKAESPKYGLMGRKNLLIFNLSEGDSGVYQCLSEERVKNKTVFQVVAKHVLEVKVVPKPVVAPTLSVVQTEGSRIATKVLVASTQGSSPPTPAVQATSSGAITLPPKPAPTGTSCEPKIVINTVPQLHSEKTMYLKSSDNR
- protocol-summary: FACS, HuPBMC
measure: EC50 (ng/mL)
Express the result in ng/mL but write the number alone.

Indicate the recorded EC50 value for this binder: H74 (antibody, V domains shown) VH: QVQLQQWGAGLLKPSETLSLTCAVYGGSFSGYYWSWIRQPPGKGLEWIGEINHSGSTNYNPSLKSRVTISVDTSKNQFSLKLSSVTAADTAVYYCAGTRWLQFPLNYWGQGTLVTVSS VL: SYVLTQPPSVSVSPGQTASITCSGDKLGDKYAYWYQQKPGQSPVLVLYQDAKRPSGIPERFSGSNSGNTATLTISGTQAMDEADYYCQAWDSSTAGYVFGTGTKVTVL 8.28
